- target-desc: human GCG receptor (human, UniProt P47871 26-477)
- Sequence (P47871 26-477): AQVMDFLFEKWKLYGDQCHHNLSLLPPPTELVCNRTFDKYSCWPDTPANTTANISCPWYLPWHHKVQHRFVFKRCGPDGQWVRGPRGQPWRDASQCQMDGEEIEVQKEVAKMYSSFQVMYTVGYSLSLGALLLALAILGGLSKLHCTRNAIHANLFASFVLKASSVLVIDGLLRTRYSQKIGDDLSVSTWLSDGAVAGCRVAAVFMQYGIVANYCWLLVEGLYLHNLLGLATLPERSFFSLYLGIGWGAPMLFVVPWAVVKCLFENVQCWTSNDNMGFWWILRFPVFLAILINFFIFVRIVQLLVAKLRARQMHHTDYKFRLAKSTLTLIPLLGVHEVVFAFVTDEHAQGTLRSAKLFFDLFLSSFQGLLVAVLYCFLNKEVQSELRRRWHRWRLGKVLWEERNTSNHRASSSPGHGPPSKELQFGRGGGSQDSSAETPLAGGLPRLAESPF
- test-details: cell-based or functional assay
parameter: cAMP EC50, HEK-293 cells stably overexpressing human GCG R (nM)

binder: YXQGTXTSDYSIFLDKKAQXAFIEYLLESXPSSGAPPXS (Aib at 2; αMeF at 6; Lys 17 side chain AEEAc-AEEAc-γGlu-CO(CH2)18COOH; Aib at 20; Aib at 30; Ac3c at 38; C-terminal amide (NH2)) [Compound 29]
numeric-result: 0.069
--
binder: YXQGTXTSDYSIFLDKKAQXAFIEYLLEGGPSSGAPPXS (Aib at 2; αMeF(2F) at 6; Lys 17 side chain AEEAc-AEEAc-γGlu-CO(CH2)18COOH; Aib at 20; Ac3c at 38; C-terminal amide (NH2)) [Compound 4]
numeric-result: 0.071
--
binder: YXQGTXTSDYSIXLDKKAQXAFIEFLLETGPSSXHPPPS (Aib at 2; αMeF(2F) at 6; αMeL at 13; Lys 17 side chain AEEAc-AEEAc-γGlu-CO(CH2)18COOH; Aib at 20; Aib at 34; C-terminal amide (NH2)) [Compound 38]
numeric-result: 0.068

Data provenance: patent US20250129135A1
